test_protocol: Pharmacokinetic study after oral administration
Assay type: in vivo, Wistar rats
run_parameters: male, Wistar, rat, plasma, 50 mg/kg
attribute_measured: MRT (h)
Answers are plain numbers, in h.

Tell me measured MRT for C[C@@H]1O[C@@H](O[C@H]2[C@H](Oc3cc(O)c4c(c3)O[C@H](c3ccc(O)cc3)CC4=O)O[C@H](CO)[C@@H](O)[C@@H]2O)[C@H](O)[C@H](O)[C@H]1O [NAR (pure)] please.
6.46

* * *

test_protocol: Pharmacokinetic study after oral administration
Assay type: in vivo, Wistar rats
run_parameters: male, Wistar, rat, plasma, 50 mg/kg
attribute_measured: AUC(0-t)

Tell me measured AUC(0-t) for C[C@@H]1O[C@@H](O[C@H]2[C@H](Oc3cc(O)c4c(c3)O[C@H](c3ccc(O)cc3)CC4=O)O[C@H](CO)[C@@H](O)[C@@H]2O)[C@H](O)[C@H](O)[C@H]1O please.
226 ng·h/mL
